EC50 reference
# test-system: T1, cynomolgus monkey 4-1BB on CHO-K1 cells (cynomolgus monkey)
# T1 chain: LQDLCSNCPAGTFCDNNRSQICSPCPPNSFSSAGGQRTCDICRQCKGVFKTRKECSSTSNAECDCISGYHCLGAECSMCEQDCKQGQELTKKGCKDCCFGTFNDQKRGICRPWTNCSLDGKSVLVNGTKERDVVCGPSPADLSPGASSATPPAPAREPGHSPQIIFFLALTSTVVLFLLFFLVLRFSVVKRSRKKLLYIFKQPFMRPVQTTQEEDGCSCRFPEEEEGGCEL
# assay-protocol: FACS; FIG. 12B

Example cases with answers are listed next.
- binder: "Utomilumab (antibody, V domains shown) VH: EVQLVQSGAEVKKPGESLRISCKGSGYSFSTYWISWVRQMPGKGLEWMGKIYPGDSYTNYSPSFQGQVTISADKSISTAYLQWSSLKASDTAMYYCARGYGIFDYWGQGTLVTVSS VL: SYELTQPPSVSVSPGQTASITCSGDNIGDQYAHWYQQKPGQSPVLVIYQDKNRPSGIPERFSGSNSGNTATLTISGTQAMDEADYYCATYTGFGSLAVFGGGTKLTVLG"
  value-kind: "EC50"
  value-observed: "3.46 nM"
- binder: "PR001764 (antibody, V domains shown) VH: EVQLLESGGGLVQPGGSLRLSCAASGFTFSSYAMSWVRQAPEKGLEWVSAISGGGGSTYYADSVKGRFTISRDNSKNTLYLQMDSLKAEDTAVYYCAKEGTTETDDYHYNMDVWGQGTTVTVSS"
  value-kind: "EC50"
  value-observed: "5.33 nM"
- binder: "PR001766 (antibody, V domains shown) VH: EVQLLESGGGLVQPGGSLRLSCAASGFTFSSYAMSWGRQAPGKGLEWVSSISGSGGSTYYADSVKGRFTISRDNSKNTLYLQMNSLRAEDTAVYYCAKEKTGTTGDYYYDMDVWGQGTTVTVSS"
  value-kind: "EC50"
  value-observed: "4.99 nM"
- binder: "PR001763 (antibody, V domains shown) VH: EVQLLESGGGLVQPGGSLRLSCTASGFTFSNYAMSWVRQAPEKGLEWVSSISGSGGSTFYADSVKGRFTISRDNSKNTLYLQMNRLTAEDTAVYYCAKEGSNGTDDYHYDIDVWGQGTTVTVSS"
  value-kind: "EC50"
  value-observed: "~0.411 nM"

Now look at this entry.
Inquiry: I'd like to know its EC50. The binder in question is PR001767 (antibody, V domains shown) VH: EVQLVETGGGLIQPGGSLRLSCAASGFTVSSNYMSWVRQAPGKGLEWVSVIYSDGSTYYADSVKGRFTISRDNSKNTLYLQMNSLRAEDTAVYYCARDRYYGSGNYPTAYYGMDVRGQGTTVTVSS
Reply text: 25 nM
